Each recorded value in this set is attributed to paper PMC12454493.

System: MCF-7
Run Description: NCI-60 one-dose SRB screen (Breast Cancer)
Format: cell-based
Study Conditions: Homo sapiens, MCF7, single dose 10 µM, 48 h, read-out: Growth inhibition percent (GI %)
Measured Quantity: inhibition at 10 µM

INSERT INTO measurements (smiles_string, measured_quantity, result) VALUES
  ('NC(=S)NNC(=O)c1cn(-c2ccc(S(N)(=O)=O)cc2)nc1-c1ccccc1', 'inhibition at 10 µM', '< 5%'),
  ('CCOC(=O)c1ccc(NC(=O)COC(=O)c2cn(-c3ccc(S(N)(=O)=O)cc3)nc2-c2ccc(C)cc2)cc1', 'inhibition at 10 µM', '78.6%'),
  ('Cc1ccc(-c2nn(-c3ccc(S(N)(=O)=O)cc3)cc2C(=O)OCC(=O)Nc2nnc(S(N)(=O)=O)s2)cc1', 'inhibition at 10 µM', '< 5%'),
  ('COc1ccc(-c2nn(-c3ccc(S(N)(=O)=O)cc3)cc2C(=O)OCC(=O)Nc2nnc(S(N)(=O)=O)s2)cc1', 'inhibition at 10 µM', '15.8%'),
  ('NS(=O)(=O)c1ccc(NC(=O)COC(=O)c2cn(-c3ccc(S(N)(=O)=O)cc3)nc2-c2ccccc2)cc1', 'inhibition at 10 µM', '< 5%'),
  ('CCOC(=O)c1ccc(NC(=O)COC(=O)c2cn(-c3ccc(S(N)(=O)=O)cc3)nc2-c2ccc(S(C)(=O)=O)cc2)cc1', 'inhibition at 10 µM', '6.56%'),
  ('COc1ccc(-c2nn(-c3ccc(S(N)(=O)=O)cc3)cc2C(=O)OCC(=O)Nc2ccc(S(N)(=O)=O)cc2)cc1', 'inhibition at 10 µM', '8.77%');
